Hey, just so you know, these numbers are from PubChem BioAssay (NCI).

# System: MCF7 breast
# Assay: NCI tumour cell line growth inhibition, 48 h
Give measured TGI for each item. Keep answers brief.

Query string: Fill in the blank: the reported TGI of "COc1ccc(C(=O)c2nc3ccccc3nc2N2CCN(c3ccccc3)CC2)cc1OC" is ____.
Result string: > 100 µM

Query string: What TGI value was documented for this molecule, COc1ccc(C2=NN(C(C)=O)C(c3ccc(Oc4ccnc5cc(Cl)ccc45)c(OC)c3)C2)cc1 (stereo not given) ?
Result string: > 100 µM

Query string: Recorded TGI of "O=C1NC(=NCc2ccc(F)cc2)N/C1=C\c1ccccc1Cl" , please.
Result string: 54.8 µM

Query string: Please look up its TGI: "CN(CCNC(=O)c1nn(-c2ccc(Cl)cc2Cl)c2c1Cc1ccccc1-2)CCNC(=O)c1nn(-c2ccc(Cl)cc2Cl)c2c1Cc1ccccc1-2"
Result string: 8.31 µM

Query string: Could you share which TGI value was measured for COCN1C(=N)C(C(=O)OC(C)(C)C)=C2C=C(O)C=CC21C (stereo not given) ?
Result string: 22.9 µM

Query string: # lookup: TGI of CC(=O)C1C(=O)C(C(C)=O)C2C3C=CC(C3)C12 (stereo not given)
Result string: > 100 µM

Query string: What value of TGI has been reported for the following molecule? "COn1oc(=O)c2ccccc21"
Result string: > 100 µM

Query string: Name the recorded TGI for CC(C)(C)OC(=O)NCCC1CNc2ccccc21 (stereo not given) .
Result string: > 100 µM

Query string: Quick one: TGI for CCN1C(=O)N(CC)C2C1NN=c1s/c(=C\c3ccc(C(F)(F)F)cc3)c(=O)n12 (stereo not given) ?
Result string: > 40 µM

Query string: Need TGI, item "C1=CCC[C@@H]2CN3CCCC/C=C\CCCC[C@H]4C[C@H](CN(CCCCCCCC1)C4)[C@H]2CC3"
Result string: 16.4 µM

---

# Test system: MOLT-4 leukemia
# Assay: NCI tumour cell line growth inhibition, 48 h
Experimental Endpoint: log10 of TGI (log10 of the value in µM)
Hi team, quick reminder: these entries are log10 of TGI (µM).

Query string: Item under review: "CN[C@@H](Cc1cccc2ccccc12)C(=O)N[C@@H](CC(C)C)B(O)O" . Reported log10 of TGI?
Result string: -1.33

Query string: Which measured log10 of TGI value corresponds to "O=C(Nc1cccc(C(F)(F)F)c1)c1ccc(NC2=C(Cl)C(=O)N(Cc3ccccc3)C2=O)cc1" ?
Result string: 1.01

Query string: Could you share which log10 of TGI value was measured for "CN(C)/C=C/c1c2c(nc3ccccc13)C(=O)c1cccnc1C2=O" ?
Result string: 0.84

Query string: GET /values?readout=log10 of TGI&item= CC1OC(CC(=O)O)Cc2c1c(O)c1c(O)cc(-c3cc(=O)c4c(=O)c5c(c(=O)c=4c3=O)CC(CC(=O)O)OC5C)c(O)c1c2O (centres undefined)
Result string: 1.34

Query string: Param item = "O=[N+]([O-])c1ccc(N=Nc2c(Cl)cc(O)cc2Cl)cc1" ; retrieve measured log10 of TGI.
Result string: 0.48

Query string: Entry "CCCS(=O)(=O)Nc1cccc(Nc2ncnc3cc(NC(=O)CCl)ccc23)c1Cl" : reported log10 of TGI = ?
Result string: 0.85

Query string: Given the entry "O=c1oc2cc(O)ccc2c2oc3cc(O)ccc3c12" , report its measured log10 of TGI.
Result string: 1.92
